The entries below come with measured AC50 values attached.
tested on: HTT; assay: RT-qPCR splicing assay for HTT mRNA isoforms (canonical junction CJ and alternative junction AJ); format: cell-based; details: increase in AJ mRNA, A673 or K562 cell line, 24 hours treatment, read-out: HTT AJ AC50

Here is how some compounds turned out for AC50.
Cc1cn2cc(-n3cnc4nc(N5CCNCC5)sc4c3=O)cc(C(F)(F)F)c2n1 ... > 10 µM
Cn1cc2cc(-n3cnc4nc(N5CCNCC5)sc4c3=O)ccc2n1 ... > 10 µM
Cc1cn2nc(-c3cc4ncn(C5CCNCC5)c(=O)c4s3)cc(C)c2n1 ... 0.1 to 1 µM

Record for Cc1cn2nc(-c3cn4c(=O)cc(N5CCNC6(CC6)C5)nc4s3)cc(C)c2n1 under target or system HTT: AC50 reported as 1 to 10 µM

Record for Cc1cn2cc(-n3cnc4nc(N5CCNCC5)sc4c3=O)cc(F)c2n1 under target or system HTT: AC50 reported as 0.1 to 1 µM

Record for Cc1cn2cc(-c3nn4c(=O)cc(N5CCNC6(CC6)C5)nc4s3)cc(F)c2n1 under target or system HTT: AC50 reported as 1 to 10 µM

Record for Cc1cn2cc(-c3cn4c(=O)cc(N5CCNCC5)nc4s3)cc(F)c2n1 under target or system HTT: AC50 reported as > 10 µM

Record for Cc1cn2nc(-c3cc(=O)n4cc(N(C)C5CC(C)(C)NC(C)(C)C5)sc4n3)cc(C)c2n1 under target or system HTT: AC50 reported as 1 to 10 µM

---

The entries below come with measured AC50 values attached.
test system: HTT; test: RT-qPCR splicing assay for HTT mRNA isoforms (canonical junction CJ and alternative junction AJ); format: cell-based; conditions: increase in AJ mRNA, A673 or K562 cell line, 24 hours treatment, read-out: HTT AJ AC50

Cc1cc(-c2nn3c(=O)cc(N4CCN(C)CC4)nc3s2)cc2cn(C)nc12 ... 1 to 10 µM
Cc1cn2cc(-c3cc(=O)n4nc(N5CCN(C)CC5)sc4n3)cc(F)c2n1 ... 1 to 10 µM
Cc1cn2cc(-c3nc4ncn(C5CCNCC5)c(=O)c4s3)cc(F)c2n1 ... < 0.1 µM

Could you now look at the following compound, please?
Cc1cn2cc(-n3cnc4nc(N(C)C5CC(C)(C)NC(C)(C)C5)sc4c3=O)cc(F)c2n1 has a reported AC50 of > 10 µM

---

The entries below come with measured IC50 values attached.
tested on: Target C; test: RT-qPCR canonical junction panel assay, Target C; format: cell-based; conditions: gene panel, read-out: Target C IC50 (decrease in CJ mRNA levels)

Here is how some compounds turned out for IC50.
Cc1cc(-c2cc3ncn(C4CCN(C)CC4)c(=O)c3s2)cc2cn(C)nc12 [Compound 237] ... 1 to 10 µM
Cn1cc2cc(-n3cnc4nc(N5CCNCC5)sc4c3=O)ccc2n1 [Compound 225] ... > 10 µM
Cc1cc(-c2nc3ncn(C4CCN(C)CC4)c(=O)c3s2)cc2cn(C)nc12 [Compound 234] ... 1 to 10 µM
Cc1cn2cc(-c3nn4c(=O)cc(N5CCNC6(CC6)C5)nc4s3)cc(F)c2n1 [Compound 216] ... 1 to 10 µM
Cc1cn2cc(-n3cnc4nc(N5CCNCC5)sc4c3=O)cc(F)c2n1 [Compound 226] ... 0.1 to 1 µM

Cc1cn2cc(-c3nn4c(=O)cc(N(C)C5CC(C)(C)NC(C)(C)C5)nc4s3)cc(F)c2n1 [Compound 215] has a reported IC50 of 1 to 10 µM

Cc1cn2cc(-n3cnc4nc(N5CCN(C)CC5)sc4c3=O)cc(F)c2n1 [Compound 228] has a reported IC50 of 1 to 10 µM

Cc1cn2nc(-c3cc(=O)n4cc(N(C)C5CC(C)(C)NC(C)(C)C5)sc4n3)cc(C)c2n1 [Compound 205] has a reported IC50 of 1 to 10 µM

---

The entries below come with measured AC50 values attached.
system: HTT; assay: RT-qPCR splicing assay for HTT mRNA isoforms (canonical junction CJ and alternative junction AJ); assay type: cell-based; conditions: increase in AJ mRNA, A673 or K562 cell line, 24 hours treatment, read-out: HTT AJ AC50

Here is how some compounds turned out for AC50.
Cc1cn2cc(-c3cn4c(=O)cc(N5CCN(C)CC5)nc4s3)cc(F)c2n1 ... > 10 µM
Cc1cc(-c2nc3ncn(C4CCN(C)CC4)c(=O)c3s2)cc2cn(C)nc12 ... 0.1 to 1 µM
Cc1cn2cc(-c3nn4c(=O)cc(N(C)C5CC(C)(C)NC(C)(C)C5)nc4s3)cc(F)c2n1 ... 1 to 10 µM
Cc1cn2cc(-c3cc(=O)n4nc(N5CCNC6(CC6)C5)sc4n3)cc(F)c2n1 ... 1 to 10 µM
Cc1cn2cc(-c3nn4c(=O)cc(N5CCN(C)CC5)nc4s3)cc(F)c2n1 ... 1 to 10 µM
Cc1cc(-c2nn3c(=O)cc(N4CCNCC4)nc3s2)cc2cn(C)nc12 ... 1 to 10 µM
Cc1cn2cc(-c3cn4c(=O)cc(N5CCNC6(CC6)C5)nc4s3)cc(F)c2n1 ... 1 to 10 µM

Could you now look at the following compound, please?
Record for Cc1cc(-c2cc(=O)n3nc(N4CCN(C)CC4)sc3n2)cc2cn(C)nc12 under target or system HTT: AC50 reported as > 10 µM

---

test system: Target C; test: RT-qPCR canonical junction panel assay, Target C; assay type: cell-based; settings: gene panel, read-out: Target C IC50 (decrease in CJ mRNA levels)
pIC50: −log10 of the molar value.
readout.kind: pIC50

Here is how some compounds turned out for pIC50.
Cc1cn2nc(-c3nc4ncn(C5CCNCC5)c(=O)c4s3)cc(C)c2n1 ... 5.00 to 6.00
Cc1cn2cc(-c3nn4c(=O)cc(N5CCN(C)C6(CC6)C5)nc4s3)cc(F)c2n1 ... 5.00 to 6.00

Could you now look at the following compound, please?
Cc1cn2cc(-n3cnc4nc(N5CCNCC5)sc4c3=O)cc(C(F)(F)F)c2n1 has a reported pIC50 of < 5.00
